Reported decrease of the level of TNF-α by item:
System: TNF-α
protocol-text: TNF-α secretion by LPS-stimulated PMA-differentiated THP1-Blue™ NF-κB macrophages (ELISA)
Assay type: cell-based, Human
experimental-conditions: 2 µM, LPS 1 µg/mL, 24 h
A number alone suffices; assume %.

molecule	system	decrease of the level of TNF-α [%]
C[C@]12C=CC(=O)C=C1CC[C@@H]1[C@@H]2C(=O)C[C@@]2(C)[C@H]1CC[C@]2(O)C(=O)CO [PDS, prednisone, reference compound]	TNF-α	70.3

Reported decrease of the level of TNF-α of `O=C(/C=C/c1ccccc1)Nc1cc(C(F)(F)F)ccc1Cl` : 12.4

decrease of the level of TNF-α in this record for `O=C(/C=C/c1ccccc1)Nc1cccc(C(F)(F)F)c1` : 10.4

Summary for this molecule, `O=C(/C=C/c1ccccc1)Nc1c(Br)cccc1Br` : decrease of the level of TNF-α is 10
